Molecular target: HIV-1 Env of isolate 94KE105 (HIV-1)
Assay: cell-based or functional assay
QUANTITY KIND: IC50 (µg/mL), pseudovirus neutralization
Lab book: enter the figure in µg/mL, no units written.

The following binders have reported results that may help.
>  <BINDER>
PGT-126 (antibody, V domains shown) VH: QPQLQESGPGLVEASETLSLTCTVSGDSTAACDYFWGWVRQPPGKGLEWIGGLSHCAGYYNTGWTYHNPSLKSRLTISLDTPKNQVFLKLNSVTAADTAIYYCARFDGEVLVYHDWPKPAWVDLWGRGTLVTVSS VL: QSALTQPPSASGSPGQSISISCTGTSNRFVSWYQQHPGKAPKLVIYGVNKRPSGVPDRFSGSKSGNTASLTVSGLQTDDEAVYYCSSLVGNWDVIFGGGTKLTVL

>  <QUANTITY KIND>
IC50 (µg/mL), pseudovirus neutralization

>  <TEST RESULT>
0.006

$$$$
>  <BINDER>
PGT-123 (antibody, V domains shown) VH: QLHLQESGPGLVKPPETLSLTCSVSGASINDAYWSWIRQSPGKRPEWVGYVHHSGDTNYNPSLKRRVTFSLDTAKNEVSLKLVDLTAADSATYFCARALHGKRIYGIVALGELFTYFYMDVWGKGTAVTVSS VL: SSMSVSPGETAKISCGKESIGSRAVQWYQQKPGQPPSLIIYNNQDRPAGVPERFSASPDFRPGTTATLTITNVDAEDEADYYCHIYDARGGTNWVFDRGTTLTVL

>  <QUANTITY KIND>
IC50 (µg/mL), pseudovirus neutralization

>  <TEST RESULT>
0.024

$$$$
>  <BINDER>
PGT-125 (antibody, V domains shown) VH: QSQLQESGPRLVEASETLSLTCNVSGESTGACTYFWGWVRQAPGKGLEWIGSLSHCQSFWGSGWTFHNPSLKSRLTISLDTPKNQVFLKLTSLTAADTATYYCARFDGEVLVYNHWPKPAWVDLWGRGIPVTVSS VL: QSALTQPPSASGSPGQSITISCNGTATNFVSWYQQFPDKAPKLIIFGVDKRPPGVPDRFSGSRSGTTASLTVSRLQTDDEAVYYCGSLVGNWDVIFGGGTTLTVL

>  <QUANTITY KIND>
IC50 (µg/mL), pseudovirus neutralization

>  <TEST RESULT>
0.004

$$$$

// sample PGT-127 (antibody, V domains shown) VH: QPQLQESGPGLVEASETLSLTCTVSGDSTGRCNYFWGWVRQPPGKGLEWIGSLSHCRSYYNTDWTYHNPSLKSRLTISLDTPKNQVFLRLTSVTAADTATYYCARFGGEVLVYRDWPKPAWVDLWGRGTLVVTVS VL: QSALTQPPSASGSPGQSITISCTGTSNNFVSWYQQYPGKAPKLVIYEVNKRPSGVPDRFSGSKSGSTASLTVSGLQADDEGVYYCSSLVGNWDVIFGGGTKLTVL , its IC50 (µg/mL), pseudovirus neutralization was 0.023
